Where these numbers come from: patent US9504751B2

- test-details: Solubility of n-butylidenephthalide in solvents
- Assay type: physicochemical
- condition: organic solvent or mixture; in polyethylene glycol 400, polyethylene glycol 300 or polypropylene glycol
reported-metric: solubility

[Q] Value lookup for solubility; key = CCCC=C1OC(=O)c2ccccc21 [Pure BP, n-butylidenephthalide]
[A] 70 to 120 mg/mL

###

- test-details: Solubility of n-butylidenephthalide in solvents
- Type: physicochemical
- condition: organic solvent or mixture; in ethanol
reported-metric: solubility

[Q] Consider the compound CCCC=C1OC(=O)c2ccccc21 [Pure BP, n-butylidenephthalide] and give its measured solubility.
[A] > 222 mg/mL
